Target: T1, TNF-R2 (a protein having the amino acid sequence, Accession No. M55994 registered at GENBANK) (UniProt P20333 23-257, limits assumed)
T1 construct: also called TNF receptor with 75 kilo daltons
T1 sequence (looked up): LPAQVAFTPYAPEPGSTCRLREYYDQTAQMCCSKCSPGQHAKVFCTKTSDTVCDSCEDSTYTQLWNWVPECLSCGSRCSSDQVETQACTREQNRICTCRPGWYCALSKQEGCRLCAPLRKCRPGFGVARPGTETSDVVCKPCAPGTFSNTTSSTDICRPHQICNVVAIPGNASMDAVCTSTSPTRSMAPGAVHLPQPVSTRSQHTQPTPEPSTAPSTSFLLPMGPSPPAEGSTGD
Assay: SPR (BIACORE 2000), receptor on sensor tip; grade 1 = 0.001 to 0.1 time that of recombinant TNF-α
assayEndpoint: binding affinity relative to recombinant TNF-α

TNF mutant protein of clone No. 25 (ligand, Mutant of lysine-replaced TNF, made in E. coli) VRSSSRTPSDMPVAHVVANPQAEGQLQWLNRRANALLANGVELRDNQLVVPSEGLYLIYSQVLFSGQGCPSTHVLLTHTISRISKTYSHPVNLLSAIRSPCQRETPEGAEANPWYEPIYLGGVFQLEPGDRLSAEINRPDYLDFAESGQVYFGIIAL	0.001 to 0.1 fold
TNF mutant protein of clone No. 8 (ligand, Mutant of lysine-replaced TNF, made in E. coli) VRSSSRTPSDMPVAHVVANPQAEGQLQWRNEHANALLANGVELRDNQLVVPSEGLYLIYSQVLFSGQGCPSTHVLLTHTISRIAVSYQTPVNLLSAIRSPCQRETPEGAEANPWYEPIYLGGVFQLEPGDRLSAEINRPDYLDFNNAGQVYFGIIAL	0.001 to 0.1 fold

Now look at this one.
Entry TNF mutant protein of clone No. 38 (ligand, Mutant of lysine-replaced TNF, made in E. coli; also called TNF antagonist of clone No. 38) VRSSSRTPSDMPVAHVVANPQAEGQLQWLNRRANALLANGVELRDNQLVVPSEGLYLIYSQVLFSGQGCPSTHVLLTHTISRIGGPYQRPVNLLSAIRSPCQRETPEGAEANPWYEPIYLGGVFQLEPGDRLSAEINRPDYLDFAESGQVYFGIIAL : reported binding affinity relative to recombinant TNF-α = ?
0.001 to 0.1 fold

Cited source: patent US20100222258A1
